# tgt: T1, recombinant human GM-CSF protein (human, UniProt P04141 18-144)
# T1 construct: Bought recombinant protein (Genscript); also called biotinylated human GM-CSF protein
# protocolDetails: SPR Biacore T200, antibody captured by anti-human Fc, GM-CSF as analyte, 25 C, 1:1 model
Parameter: pKd. Scope: all listed entries.
When answering, recall that pKd equals minus log10 of the concentration in mol/L, and write that number alone.

Worked set:
binder | pKd
Hu23F4-5 (antibody, V domains shown, Humanized) VH: EVQLVQSGAEVKKPGATVKISCKVSGYTFTSHYLHWVQQAPGKGLEWMGWIFPGDDKTKYNEKFKGRVTITSDTSTDTAYMELSSLRSEDTAVYYCARGTKYLNWNFDVWGQGTTVTVSS VL: DIQLTQSPSFLSASVGDRVTITCKANQNVGTTLAWYQQKPGKAPKLLIYSASYRYSGVPSRFSGSGSGTEFTLTISSLQPEDFATYYCHQYTTYPLTFGGGTKVEIK | 9.98
Hu23F4-25 (antibody, V domains shown, Humanized) VH: EVQLVQSGAEVKKPGASVKVSCKASGYTFTSHYLHWVRQAPGQGLEWMGWIFPGDDKTKYNEKFKGRVTMTSDTSISTAYMELSRLRSDDTAVYYCARGTKYLNWNFDVWGQGTTVTVSS VL: DIQLTQSPSFLSASVGDRVTITCKANQNVGTTLAWYQQKPGKAPKALIYSASYRYSGVPSRFSGSGSGTEFTLTISSLQPEDFATYYCHQYTTYPLTFGGGTKVEIK | 9.76
Hu23F4-27 (antibody, V domains shown, Humanized) VH: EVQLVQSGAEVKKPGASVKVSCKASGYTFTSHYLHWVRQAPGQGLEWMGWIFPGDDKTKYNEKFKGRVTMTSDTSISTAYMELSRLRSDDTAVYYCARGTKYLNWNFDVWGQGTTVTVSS VL: DIQLTQSPSFLSASVGDRVTITCKANQNVGTTLAWYQQKPGKSPKALIYSASYRYSGVPDRFSGSGSGTDFTLTISSLQPEDFATYFCHQYTTYPLTFGGGTKVEIK | 9.99
Hu50C5-6 (antibody, V domains shown, Humanized; also called 35230Hu50C5-6) VH: EVQLVQSGAEVKKPGSSVKVSCKASGYIFSPYSIHWVRQAPGQGLEWMGYINPSTGYIEYNQHFKDRVTITADKSTSTAYMELRSLRSEDTAVYYCARGGDYEGYFDYWGQGTTVTVSS VL: DIQMTQSPSSLSASVGDRVTITCRLNENIYSFLAWYQQKPGKAPKLLIYNAETLAEGVPSRFSGSGSGTDFTLTISSLQPEDFATYYCQQHYGTPYTFGGGTKVEIK | 10.51

// switching to the query binder
Given the entry 23F4 chimera (antibody, V domains shown, Human constant regions (captured by anti-human Fc IgG); also called Hu23F4-chimera) VH: QVQLQQSGPELVKPGTSMKISCKTSDYTLTSHYLHWVKQRPGQGLEWIGWIFPGDDKTKYNEKFKGKATLTSDKTSNTAYMQLSSLTSEESAVYFCARGTKYLNWNFDVWGTGTTVTVSS VL: DIVLTQPQKFLSTSVGDRVSVTCKANQNVGTTLAWYQQKPGQSPKALIYSASYRYSGVPDRFTGSGSGTDFTLTISNVQSEDLAEYFCHQYTTYPLTFGGGTKLEIK , report its measured pKd.
10.50

Source listed as patent US20190002549A1.
